// TGI lookup, one value per entry
system: NCI/ADR-RES ovarian; assay: NCI tumour cell line growth inhibition, 48 h
*1 amine or outer side, *2 acyl side, *3 side chain or, on linkers, in order; H or OH if unused. Where a SMILES comes first, the peptide text is derived from it. [ ]: non-standard residue; d: D form. The star is where a group is joined. ξ: configuration not given here. NMeY = CN[C@@H](Cc1ccc(O)cc1)C(=O)O; Ethylenediamine = C(CN[*:2])N[*:1]; ξNMeL = CNC(CC(C)C)C(=O)O; Cbz = O=C(OCc1ccccc1)*; Lac = C[C@H](O)C(=O)O; ξA = CC(N)C(=O)O

| compound | target.system | TGI |
| --- | --- | --- |
| Cc1ccc(C(=O)c2sc3nc4c(cc3c2N)CCCC4)c(C)c1 | NCI/ADR-RES ovarian | > 100 µM |
| COc1ccc(/C(C)=N/NC(=O)CSc2nc3ccccc3c(=O)n2CCc2ccc(S(N)(=O)=O)cc2)cc1 | NCI/ADR-RES ovarian | > 100 µM |
| CN(C)CCNCc1ccc2c(-c3ccccc3)nc3cc(Cl)c(Cl)cc3n12 | NCI/ADR-RES ovarian | 31.4 µM |
| CC(C)=Cc1cc(C)c2c3c(c(O)c(O)c(C)c13)C(C)=CC2=O | NCI/ADR-RES ovarian | 81.5 µM |
| Cc1ccc(Nc2cc(Cl)c([N+](=O)[O-])cc2[N+](=O)[O-])cc1 | NCI/ADR-RES ovarian | 24 µM |

The value of TGI measured for the compound Cc1cc(S(=O)(=O)Nc2nnc3c4ccccc4cnn23)c(S)cc1Cl turned out to be > 100 µM

Sure, the documented TGI for CC(=O)Oc1ccc2c(c1)[C@@]1(C)CCCC(C)(C)[C@@H]1CC2 is 49.9 µM

Kindly note the recorded TGI for CC(C)(C)OC(=O)NCCCCn1c2c(c3ccccc3c1=O)C(=O)c1ccccc1-2 , which is 45.7 µM

What the record says about C[C@@H](CC(=O)O)OC1OC(COC(=O)C(C)(C)C)C(OC(=O)C(C)(C)C)C(OC(=O)C(C)(C)C)C1OC(=O)C(C)(C)C (some centres undefined) : TGI is > 100 µM

O=C(CSCC(=O)N/N=C/c1ccccc1O)N/N=C\c1ccccc1O yielded TGI of > 100 µM

Summary for this compound, CCOC(=O)C(Cc1c[nH]c2cc(N(CCO)CCO)ccc12)(NC(C)=O)C(=O)OCC : TGI is > 1000 µM

Looking up O=C(Nc1cccc(-n2cc(-c3ccncc3)c(-c3ccc(O)c(Cl)c3)n2)c1)c1ccc2c(c1)OCCO2 , I see its TGI listed as > 100 µM

Recorded TGI (compound COc1ccc2c(c1)CC1COc3cc(OC)ccc3C1O2 (centres undefined) ): > 100 µM

Entry COc1ccc(C[C@@H](C(=O)NCCNC(=O)C(CC(C)C)N(C)C(=O)[C@@H]2CCCN2C(=O)[C@H](C)O)N(C)C(=O)[C@@H]2CCCN2C(=O)[C@H](CC(C)C)NC(=O)C(C)NC(=O)OCc2ccccc2)cc1 (some centres undefined) (Cbz-[ξA]LP[NMeY](Me)-{Ethylenediamine-ξNMeL-Pro-Lac}) , TGI reported as > 100 µM

* * *

tested on: M19-MEL melanoma; experiment: NCI tumour cell line growth inhibition, 48 h
// reported TGI per item
The reply should contain only the number, in µM.

| molecule | measured.parameter | readout.unit | assay.value |
| --- | --- | --- | --- |
| C[N+](C)(C)CC1CCC(C[N+](C)(C)C)C1=O (configuration not stated) | TGI | µM | 3.83 |
| COC(=O)CCC(=O)N1C/C(=C\c2ccccc2)C(=O)/C(=C/c2ccccc2)C1 | TGI | µM | 11.7 |

Continue with the molecule presented below.
For this molecule ( CCOC(=O)C(C)Sc1nnc(COc2ccc(Cl)cc2)n1-c1ccccc1 (configuration not stated) ), measured TGI is 34.9

* * *

Overview of reported GI50 across a group of compounds:
tested on: TK-10 renal; test: NCI tumour cell line growth inhibition, 48 h

Here's what some known entries look like.
| compound | assay.value |
| --- | --- |
| O=C(O)c1cc2ccccc2c2c3c(ccc12)OCO3 | 231 µM |
| NCCCCCNc1noc(Cc2c[nH]c3cc(Br)ccc23)n1 | 7.66 µM |
| CCN(CC)c1c(-c2ccccc2)n[nH]c1C(=O)OC | 22.5 µM |
| NCCCOc1cc2ccccc2cc1C(=O)Nc1ccc(Cl)cc1OC(=O)c1cc2ccccc2cc1OCCCN | 0.545 µM |
| CCC1C(C)C=NN1c1nc(N)nc(C(C#N)=Nc2ccc(N(C)C)cc2)n1 (stereo not given) | 10.6 µM |

The compound C/C=C/C/C=C/[C@H](C)C[C@H](O)[C@@H]1C[C@@H]2O[C@H]2/C=C/[C@@H]2OC(C)(C)O[C@H]2/C=C/C[C@H](C)CC(=O)O1 showed GI50 equal to 51.8 µM

Form field GI50, entry Nc1nonc1-c1nc2ccccc2n1Cc1ccc(F)cc1 : 6.78 µM

GI50 recorded for this compound, CC[C@@]1(OC(=O)CN(C)C)C(=O)OCc2c1cc1n(c2=O)Cc2cc3c(N)cccc3nc2-1 , is 1.68 µM

Record summary for Cc1cc(-c2nnc(/C=C/c3ccc4c(c3)OCO4)o2)n[nH]1 : reported GI50 = 22.3 µM

Record O=C1Nc2cc(-c3cccc(O)c3)ccc2/C1=C/c1ccc[nH]1 . Reported GI50: 0.833 µM

* * *

Listing of recorded TGI by entry.
system: SK-MEL-5 melanoma; assay: NCI tumour cell line growth inhibition, 48 h

Just so you know, measured TGI for CCOc1ccccc1NC(=O)C(=O)C(/C(=N/N)C(=O)OC)c1nc2ccc([N+](=O)[O-])cc2[nH]c1=O (stereo not given) came out at > 100 µM

# molecule O=C1N2Cc3c4ccc5c3CN3C(=O)N6Cc7c(ccc(c7CN1C6(c1ccccc1)C23c1ccccc1)OCCOCCOc1cc(Br)c(Br)cc1OCCOCCO4)OCCOCCOc1cc(Br)c(Br)cc1OCCOCCO5 (stereo not given) ; its TGI = > 100 µM

So, CCCN(CCC)C(=S)N/N=C(/C)c1ccccc1O ? Its TGI was > 41.2 µM

Value of TGI reported for the molecule N#Cc1c(C#N)c(-c2ccccc2)n(Cc2ccccc2)c1N is > 100 µM

Notebook: CCC(=O)NI1OC(=O)c2ccccc21 , TGI read as > 100 µM

* * *

system: MALME-3M melanoma; experiment: NCI tumour cell line growth inhibition, 48 h
measured.parameter: TGI

The following compounds have reported results that may help.
| compound | target.system | TGI |
| --- | --- | --- |
| Nc1c(C(=O)Nc2ccccn2)sc2nc3c(cc12)C(O)CCC3 (stereo not drawn) | MALME-3M melanoma | > 50 µM |
| O=C(Cc1nc2sc3c(c2c(=O)[nH]1)CCCC3)Nc1ccccc1 | MALME-3M melanoma | > 100 µM |

TGI for MALME-3M melanoma with input O=C1c2c(O)cc(O)cc2C(C2OC(CO)C(O)C(O)C2O)c2cc(CO)cc(O)c21 (stereo not drawn) equals > 100 µM

* * *

test system: HL-60(TB) leukemia; test: NCI tumour cell line growth inhibition, 48 h
measured.parameter: TGI

| compound | TGI |
| --- | --- |
| Cc1cccc(C)c1NC(=O)CCC/C(CC(=O)c1ccc(F)cc1)=N\NC(=O)C(=O)NN | > 100 µM |
| CCCN(CCC)C(=S)N/N=C(/C)c1ccccc1O | > 29.5 µM |
| O=C(CC(O)(C(F)(F)F)C(F)(F)Cl)CC(O)(C(F)(F)F)C(F)(F)Cl (configuration not stated) | > 10 µM |
| COCCOC(=O)NCn1cc(-c2ccccc2)nn1 | > 100 µM |
| Cc1ccc(/C=C2/N=C(N/N=C\C(O)C(O)C(O)CO)NC2=O)cc1 (configuration not stated) | > 100 µM |
| C/C(=N\NC(=O)C[N+](C)(C)C)c1sc(-c2cccnc2)nc1C | > 100 µM |
| CC(=O)Oc1ccc2c(c1)[C@@]1(C)CCCC(C)(C)[C@@H]1CC2 | > 100 µM |
| COc1cc2c(oc(=O)c3c4occc4cc(OC)c23)c2cccc(OCc3ccccc3)c12 | > 100 µM |

Entry under test: C=C(Cl)/C(=C\Cl)CCC(Cl)C(C)C (configuration not stated) . Its TGI was > 100 µM

For reference, reported TGI for CC(=O)N1c2ccccc2C2=NN(C)C(=N)SC21 (configuration not stated) stands at > 100 µM

// sample Cc1cccc(C)c1NC(=O)CCc1nnc2s/c(=C\c3ccc(N(C)C)cc3)c(=O)n12 , its TGI was > 100 µM

According to the records, this compound C1OC1CN1CCN(CC2CO2)CC1 (configuration not stated) displays TGI of > 88.7 µM
